tested on: 361931-004-R-J1-PDC multicell spheroid viability; test: Anticancer human tumor 361931-004-R-J1-PDC patient-derived colon adenocarcinoma cell line growth inhibition [PI3K]; conditions: second compound 0.1 µM; first compound 10 µM; stronger effect = lower value
Threshold check on viability, T/C: strictly below 3% is Condition met; on or above 3% is Condition not met.

// known answers, use as guide
C[C@@H](NC(=O)c1ncnc(N)c1Cl)c1ncc(C(=O)Nc2cc(C(F)(F)F)c(Cl)cn2)s1 + CC(Nc1ccc2c(c1)OCCn1cc(N3C(=O)OCC3C(F)F)nc1-2)C(N)=O; Condition not met
Cn1ncc(Cl)c1-c1cc(C(=O)NC(CN)Cc2cccc(F)c2)sc1Cl (stereo not given) + CC(Nc1ncnc2nc[nH]c12)c1cc2cccc(Cl)c2c(=O)n1-c1ccccc1; Condition not met

Query string: API: query returns whether the molecule falls strictly under 3% in viability, T/C. Query: CNC(=O)c1ccc(N2C(=S)N(c3ccc(C#N)c(C(F)(F)F)c3)C(=O)C2(C)C)cc1F + CC(Nc1ncnc2nc[nH]c12)c1cc2cccc(Cl)c2c(=O)n1-c1ccccc1
Result string: Condition not met

Query string: API: query returns whether the molecule falls strictly under 3% in viability, T/C. Query: CC1(C)CCC(CN2CCN(c3ccc(C(=O)NS(=O)(=O)c4ccc(NCC5CCOCC5)c([N+](=O)[O-])c4)c(Oc4cnc5[nH]ccc5c4)c3)CC2)=C(c2ccc(Cl)cc2)C1 + COc1c(OCCCN2CCOCC2)ccc2c3n(c(=NC(=O)c4cnc(N)nc4)nc12)CCN3
Result string: Condition met

Query string: API: query returns whether the molecule falls strictly under 3% in viability, T/C. Query: CC1(C)CCC(Nc2ncc(C(F)(F)F)c(-c3c[nH]c4c(P(C)(C)=O)c(C#N)ccc34)n2)CN1 (stereo not given) + CC(Nc1ccc2c(c1)OCCn1cc(N3C(=O)OCC3C(F)F)nc1-2)C(N)=O
Result string: Condition not met

====

tested on: 361931-004-R-J1-PDC multicell spheroid viability; test: Anticancer human tumor 361931-004-R-J1-PDC cell line growth inhibition [PI3K]; settings: second compound 0.01 µM; first compound 0.0316 µM; stronger effect = lower value;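 further: spheroids exposed to agents for seven days before readout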
Give viability, T/C for every item shown.
Numbers only, in %.

CCCS(=O)(=O)Nc1ccc(F)c(C(=O)c2c[nH]c3ncc(-c4ccc(Cl)cc4)cc23)c1F + CC(Nc1ccc2c(c1)OCCn1cc(N3C(=O)OCC3C(F)F)nc1-2)C(N)=O; 101
Cn1nccc1Nc1nccc(-c2ccn(C(CO)c3ccc(Cl)c(F)c3)c(=O)c2)n1 (stereo not drawn) + CC(Nc1ccc2c(c1)OCCn1cc(N3C(=O)OCC3C(F)F)nc1-2)C(N)=O; 120

Now consider a different compound.
Query string: Could you please provide reported viability, T/C for Cn1ncnc1[C@H]1c2n[nH]c(=O)c3cc(F)cc(c23)N[C@@H]1c1ccc(F)cc1 + COc1c(OCCCN2CCOCC2)ccc2c3n(c(=NC(=O)c4cnc(N)nc4)nc12)CCN3 ? Thanks!
Result string: 91.5

====

Give pIC50 for every item shown.
tested on: 361931-004-R-J1-PDC multicell spheroid viability; experiment: Anticancer human tumor 361931-004-R-J1-PDC cell line growth inhibition [PI3K]; conditions: curve of first compound; second compound 1 µM;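 further: spheroids exposed to agents for seven days before readout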
Give bare numbers, as −log10 of the molar value.

The following compounds have reported results that may help.
Cn1cnc2c(F)c(Nc3ccc(Br)cc3Cl)c(C(=O)NOCCO)cc21 + Cc1nc(NC(=O)N2CCCC2C(N)=O)sc1-c1ccnc(C(C)(C)C(F)(F)F)c1; 6.13
CC(C)NCC(C(=O)N1CCN(c2ncnc3c2C(C)CC3O)CC1)c1ccc(Cl)cc1 (stereo not given) + CC(Nc1ccc2c(c1)OCCn1cc(N3C(=O)OCC3C(F)F)nc1-2)C(N)=O; 5.96

Now consider a different compound.
Query string: Could you please provide reported pIC50 for CCN1CCN(Cc2ccc(Nc3ncc(F)c(-c4cc(F)c5nc(C)n(C(C)C)c5c4)n3)nc2)CC1 + Cc1nc(NC(=O)N2CCCC2C(N)=O)sc1-c1ccnc(C(C)(C)C(F)(F)F)c1 ? Thanks!
Result string: 6.22

====

system: 361931-004-R-J1-PDC multicell spheroid viability; experiment: Anticancer human tumor 361931-004-R-J1-PDC cell line growth inhibition [PI3K]; details: second compound 1 µM; first compound 0.1 µM; stronger effect = lower value;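 further: spheroids exposed to agents for seven days before readout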
Threshold check on viability, T/C: strictly below 80% is yes; on or above 80% is no.

Query string: API: query returns whether the molecule falls strictly under 80% in viability, T/C. Query: Cn1ncnc1[C@H]1c2n[nH]c(=O)c3cc(F)cc(c23)N[C@@H]1c1ccc(F)cc1 + CC(Nc1ncnc2nc[nH]c12)c1cc2cccc(Cl)c2c(=O)n1-c1ccccc1
Result string: no

Query string: API: query returns whether the molecule falls strictly under 80% in viability, T/C. Query: CCCS(=O)(=O)Nc1ccc(F)c(C(=O)c2c[nH]c3ncc(-c4ccc(Cl)cc4)cc23)c1F + COc1c(OCCCN2CCOCC2)ccc2c3n(c(=NC(=O)c4cnc(N)nc4)nc12)CCN3
Result string: yes

Query string: API: query returns whether the molecule falls strictly under 80% in viability, T/C. Query: CC(C)NCC(C(=O)N1CCN(c2ncnc3c2C(C)CC3O)CC1)c1ccc(Cl)cc1 (stereo not given) + Cc1nc(NC(=O)N2CCCC2C(N)=O)sc1-c1ccnc(C(C)(C)C(F)(F)F)c1
Result string: no

Query string: API: query returns whether the molecule falls strictly under 80% in viability, T/C. Query: Cn1nccc1Nc1nccc(-c2ccn(C(CO)c3ccc(Cl)c(F)c3)c(=O)c2)n1 (stereo not given) + CC(Nc1ncnc2nc[nH]c12)c1cc2cccc(Cl)c2c(=O)n1-c1ccccc1
Result string: no

====

Tested on: 361931-004-R-J1-PDC multicell spheroid viability
Assay: Anticancer human tumor 361931-004-R-J1-PDC cell line growth inhibition [PI3K]; active means viability on the fitted dose curve at most 10% of control; inactive means the rest;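 further: spheroids exposed to agents for seven days before readout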
Details: second compound 1 µM; first compound 10 µM
Description: Combinatorial screen of targeted agents with the PI3K inhibitors inavolisib, alpelisib, duvelisib, and copanlisib in multi-cell type tumor spheroids A high-throughput screen of multi-cell type tumor spheroids was designed to identify active combinations of targeted small molecules and PI3K pathway inhibitors. […] Compounds. […] If the clinical Cmax for an agent had not been determined, the highest concentration tested was 10 microM. […]
Tick one outcome: true (active), false (inactive)

Query string: Please let me know the test result on file for CC1(C)CCC(CN2CCN(c3ccc(C(=O)NS(=O)(=O)c4ccc(NCC5CCOCC5)c([N+](=O)[O-])c4)c(Oc4cnc5[nH]ccc5c4)c3)CC2)=C(c2ccc(Cl)cc2)C1 + COc1c(OCCCN2CCOCC2)ccc2c3n(c(=NC(=O)c4cnc(N)nc4)nc12)CCN3 .
Result string: false

Query string: Please let me know the test result on file for C=CC(=O)N1CCN(c2nc(=O)n(-c3c(C)ccnc3C(C)C)c3nc(-c4c(O)cccc4F)c(F)cc23)C(C)C1 (stereo not given) + CC(Nc1ccc2c(c1)OCCn1cc(N3C(=O)OCC3C(F)F)nc1-2)C(N)=O .
Result string: false

Query string: Please let me know the test result on file for CC(Cn1ccc(-c2ccc(C#N)c(Cl)c2)n1)NC(=O)c1cc(C(C)O)[nH]n1 (stereo not given) + CC(Nc1ncnc2nc[nH]c12)c1cc2cccc(Cl)c2c(=O)n1-c1ccccc1 .
Result string: false

Query string: Please let me know the test result on file for CC(Cn1ccc(-c2ccc(C#N)c(Cl)c2)n1)NC(=O)c1cc(C(C)O)[nH]n1 (stereo not given) + CC(Nc1ccc2c(c1)OCCn1cc(N3C(=O)OCC3C(F)F)nc1-2)C(N)=O .
Result string: false

====

system: 361931-004-R-J1-PDC multicell spheroid viability; test: Anticancer human tumor 361931-004-R-J1-PDC cell line growth inhibition [PI3K]; conditions: second compound 0.0316 µM; first compound 0.316 µM; stronger effect = lower value;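 further: spheroids exposed to agents for seven days before readout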
Give viability, T/C for every item shown.
One number for each entry, in %.

C=CC(=O)N1CCN(c2nc(=O)n(-c3c(C)ccnc3C(C)C)c3nc(-c4c(O)cccc4F)c(F)cc23)C(C)C1 (stereo not drawn) + Cc1nc(NC(=O)N2CCCC2C(N)=O)sc1-c1ccnc(C(C)(C)C(F)(F)F)c1; 87.7
CCN1CCN(Cc2ccc(Nc3ncc(F)c(-c4cc(F)c5nc(C)n(C(C)C)c5c4)n3)nc2)CC1 + CC(Nc1ncnc2nc[nH]c12)c1cc2cccc(Cl)c2c(=O)n1-c1ccccc1; 109

Query string: Could you please provide reported viability, T/C for CCCS(=O)(=O)Nc1ccc(F)c(C(=O)c2c[nH]c3ncc(-c4ccc(Cl)cc4)cc23)c1F + Cc1nc(NC(=O)N2CCCC2C(N)=O)sc1-c1ccnc(C(C)(C)C(F)(F)F)c1 ? Thanks!
Result string: 88.6

====

tested on: 361931-004-R-J1-PDC multicell spheroid viability; experiment: Anticancer human tumor 361931-004-R-J1-PDC cell line growth inhibition [PI3K]; conditions: second compound 0.0316 µM; first compound 0.0316 µM; stronger effect = lower value;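 further: spheroids exposed to agents for seven days before readout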
Give viability, T/C for every item shown.
Answers are plain numbers, in %.

The following molecules have reported results that may help.
C[C@@H](NC(=O)c1ncnc(N)c1Cl)c1ncc(C(=O)Nc2cc(C(F)(F)F)c(Cl)cn2)s1 + COc1c(OCCCN2CCOCC2)ccc2c3n(c(=NC(=O)c4cnc(N)nc4)nc12)CCN3; 98.6
Cn1nccc1Nc1nccc(-c2ccn(C(CO)c3ccc(Cl)c(F)c3)c(=O)c2)n1 (stereo unspecified) + Cc1nc(NC(=O)N2CCCC2C(N)=O)sc1-c1ccnc(C(C)(C)C(F)(F)F)c1; 106
CC1(C)CCC(Nc2ncc(C(F)(F)F)c(-c3c[nH]c4c(P(C)(C)=O)c(C#N)ccc34)n2)CN1 (stereo unspecified) + CC(Nc1ccc2c(c1)OCCn1cc(N3C(=O)OCC3C(F)F)nc1-2)C(N)=O; 78.7
CCN1CCN(Cc2ccc(Nc3ncc(F)c(-c4cc(F)c5nc(C)n(C(C)C)c5c4)n3)nc2)CC1 + CC(Nc1ncnc2nc[nH]c12)c1cc2cccc(Cl)c2c(=O)n1-c1ccccc1; 103
CC(Cn1ccc(-c2ccc(C#N)c(Cl)c2)n1)NC(=O)c1cc(C(C)O)[nH]n1 (stereo unspecified) + CC(Nc1ccc2c(c1)OCCn1cc(N3C(=O)OCC3C(F)F)nc1-2)C(N)=O; 102

Now consider a different molecule.
Query string: Could you please provide reported viability, T/C for CC(C)NCC(C(=O)N1CCN(c2ncnc3c2C(C)CC3O)CC1)c1ccc(Cl)cc1 (stereo unspecified) + CC(Nc1ccc2c(c1)OCCn1cc(N3C(=O)OCC3C(F)F)nc1-2)C(N)=O ? Thanks!
Result string: 97.9

Where these numbers come from: PubChem BioAssay AID1963979
